Quick reference for Kd among some binders
# target-or-system: Egalitarian (Egl);Bicaudal D (BicD) (Drosophila melanogaster;Drosophila …, UniProt Q9W1K4;P16568 1-1004;1-782, |)
# Sequence (chain, as listed by the source |, chain 1 of 2): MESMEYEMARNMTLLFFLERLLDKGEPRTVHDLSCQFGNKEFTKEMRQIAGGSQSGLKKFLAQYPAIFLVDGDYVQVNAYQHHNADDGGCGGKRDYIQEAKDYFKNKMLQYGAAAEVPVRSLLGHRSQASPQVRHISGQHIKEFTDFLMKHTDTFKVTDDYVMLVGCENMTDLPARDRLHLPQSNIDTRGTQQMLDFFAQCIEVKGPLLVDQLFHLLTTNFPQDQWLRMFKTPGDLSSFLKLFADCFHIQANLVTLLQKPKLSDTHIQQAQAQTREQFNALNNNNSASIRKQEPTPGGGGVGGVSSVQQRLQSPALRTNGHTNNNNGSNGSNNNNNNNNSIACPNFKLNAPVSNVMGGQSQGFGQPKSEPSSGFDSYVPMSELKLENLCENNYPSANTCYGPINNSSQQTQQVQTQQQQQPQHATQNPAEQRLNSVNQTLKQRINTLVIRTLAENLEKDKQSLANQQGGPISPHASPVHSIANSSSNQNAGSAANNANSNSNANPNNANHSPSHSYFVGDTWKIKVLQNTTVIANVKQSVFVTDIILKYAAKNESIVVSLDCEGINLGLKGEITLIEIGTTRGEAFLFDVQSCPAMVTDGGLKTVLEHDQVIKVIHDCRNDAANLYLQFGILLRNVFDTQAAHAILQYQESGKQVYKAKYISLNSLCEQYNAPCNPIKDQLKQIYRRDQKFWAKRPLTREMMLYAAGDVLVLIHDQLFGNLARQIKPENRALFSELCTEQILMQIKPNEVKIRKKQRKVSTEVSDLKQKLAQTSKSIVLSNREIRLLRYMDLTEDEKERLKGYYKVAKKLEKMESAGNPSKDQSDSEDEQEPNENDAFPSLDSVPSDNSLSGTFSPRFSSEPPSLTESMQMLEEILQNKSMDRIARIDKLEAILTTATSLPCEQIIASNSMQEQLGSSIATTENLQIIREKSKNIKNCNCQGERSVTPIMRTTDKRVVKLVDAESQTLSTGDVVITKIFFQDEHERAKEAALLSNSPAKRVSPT
# Sequence (P16568 whole entry, chain 2 of 2): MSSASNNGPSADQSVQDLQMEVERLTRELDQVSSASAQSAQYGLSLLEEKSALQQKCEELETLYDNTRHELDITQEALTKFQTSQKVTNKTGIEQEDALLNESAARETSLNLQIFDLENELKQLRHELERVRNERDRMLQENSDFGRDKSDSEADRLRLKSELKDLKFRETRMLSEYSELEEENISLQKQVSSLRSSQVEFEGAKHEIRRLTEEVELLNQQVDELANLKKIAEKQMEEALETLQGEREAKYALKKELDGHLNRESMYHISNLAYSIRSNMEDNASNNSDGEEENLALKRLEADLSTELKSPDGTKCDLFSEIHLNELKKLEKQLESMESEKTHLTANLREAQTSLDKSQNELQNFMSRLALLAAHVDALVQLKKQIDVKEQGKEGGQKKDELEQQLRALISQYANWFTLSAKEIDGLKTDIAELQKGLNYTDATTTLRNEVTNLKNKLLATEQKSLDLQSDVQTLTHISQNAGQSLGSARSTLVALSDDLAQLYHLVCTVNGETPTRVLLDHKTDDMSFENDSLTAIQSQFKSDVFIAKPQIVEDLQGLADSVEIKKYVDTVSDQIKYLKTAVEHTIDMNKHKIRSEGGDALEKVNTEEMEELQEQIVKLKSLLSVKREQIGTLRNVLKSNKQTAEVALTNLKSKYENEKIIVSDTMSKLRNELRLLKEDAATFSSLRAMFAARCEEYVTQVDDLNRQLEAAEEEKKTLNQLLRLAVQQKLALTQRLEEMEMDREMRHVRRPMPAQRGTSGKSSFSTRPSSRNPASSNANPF
# protocol-notes: MST; MST: 1 nM Cy5-RNA in GF150 (25 mM HEPES pH 7.3, 150 mM KCl, 1 mM MgCl2, 0.1 mM Mg-ATP, 5 mM DTT, 10% glycerol) + 0.05% Tween-20, 15 min, room temperature; Egl-BicD conc. as 2:2 complex
# experimental-conditions: protein: recombinant;recombinant; tags: C-terminal TEV-ZZ (cleaved);; chain copies: 2;2; label: 5'-Cy5; hairpin with 3'-strand bulges
property-name: Kd (µM)

binder: TLS-CGED1/ED2 (structured_RNA) RNA: UUACACCACUUGACUGUAUUUUCAAAUUAAUUCUUGAAAACUACAAGUUAAGAUCACUCU
readout-number: 0.345

binder: TLS-AUED1/ED2 (structured_RNA) RNA: UUACACCACUUGAAUGUAUUUUAAAAUUAAUUCUUUAAAACUACAAUUUAAGAUCACUCU
readout-number: 0.746

binder: TLS-GCED2 (structured_RNA) RNA: UUACACCACUUGAUUGUAUUUUGAAAUUAAUUCUUCAAAACUACAAAUUAAGAUCACUCU
readout-number: 0.425

binder: TLS-GCED1/ED2 (structured_RNA) RNA: UUACACCACUUGAGUGUAUUUUGAAAUUAAUUCUUCAAAACUACAACUUAAGAUCACUCU
readout-number: 4.11

binder: TLS-2xGCED1 (structured_RNA) RNA: UUACACCACUUGAGGGUAUUUUUAAAUUAAUUCUUAAAAACUACACCUUAAGAUCACUCU
readout-number: 0.376

binder: TLS-2xGCED1+GCED2 (structured_RNA) RNA: UUACACCACUUGAGGGUAUUUUGAAAUUAAUUCUUCAAAACUACACCUUAAGAUCACUCU
readout-number: 1.51
